Tested on: PPARg homodimer (NR concentration 180 nM)
assay-protocol: PBM binding z-score (relative to random genomic background probes); higher = stronger binding; sequences stand for … in GC…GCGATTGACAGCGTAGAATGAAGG
# label = Met if PBM binding z-score >= 0.8 else Not met

## Input Is the recorded value of PBM binding z-score equal to or greater than 0.8 for this sequence? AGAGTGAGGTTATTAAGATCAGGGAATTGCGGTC
## Output Met

* * *

System: VDR:RXRa (NR concentration 270 nM, RXRa partner concentration 90 nM)
assay-protocol: PBM binding z-score (relative to random genomic background probes); higher = stronger binding; sequences stand for … in GC…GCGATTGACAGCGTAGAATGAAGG
experimental-endpoint: PBM binding z-score
Answer as a number with no unit attached.

See these solved cases before continuing.
{"sequence-data": "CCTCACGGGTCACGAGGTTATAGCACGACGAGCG", "PBM binding z-score": 4.79}
{"sequence-data": "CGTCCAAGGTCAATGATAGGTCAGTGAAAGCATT", "PBM binding z-score": 5.02}
{"sequence-data": "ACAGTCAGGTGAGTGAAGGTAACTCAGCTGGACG", "PBM binding z-score": -0.663}
{"sequence-data": "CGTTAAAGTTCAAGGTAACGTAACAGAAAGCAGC", "PBM binding z-score": 3.02}
{"sequence-data": "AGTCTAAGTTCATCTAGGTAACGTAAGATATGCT", "PBM binding z-score": 4.65}

## Input May I ask what PBM binding z-score has been recorded for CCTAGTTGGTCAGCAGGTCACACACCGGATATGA ?
## Output 2.32

* * *

Tested on: RXRa homodimer (NR concentration 180 nM)
assay-protocol: PBM binding z-score (relative to random genomic background probes); higher = stronger binding; sequences stand for … in GC…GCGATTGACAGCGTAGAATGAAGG
Kind request: treat 2 as inclusive, so PBM binding z-score at 2 or higher is fulfilled, anything lower is not fulfilled.

Reference set, count: 6
{"sequence-data": "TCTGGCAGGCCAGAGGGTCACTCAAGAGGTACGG", "class-assignment": "fulfilled"}
{"sequence-data": "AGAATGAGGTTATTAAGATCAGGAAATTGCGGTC", "class-assignment": "not fulfilled"}
{"sequence-data": "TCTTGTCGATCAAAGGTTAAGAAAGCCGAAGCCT", "class-assignment": "fulfilled"}
{"sequence-data": "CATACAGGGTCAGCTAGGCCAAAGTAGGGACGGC", "class-assignment": "fulfilled"}
{"sequence-data": "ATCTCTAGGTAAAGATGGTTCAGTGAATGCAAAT", "class-assignment": "not fulfilled"}
{"sequence-data": "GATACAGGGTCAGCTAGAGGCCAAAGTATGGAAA", "class-assignment": "fulfilled"}

## Input Check if PBM binding z-score >= 2 (inclusive). Item: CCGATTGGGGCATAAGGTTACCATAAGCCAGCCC
## Output not fulfilled

## Input In plain terms: is recorded PBM binding z-score at least 2 for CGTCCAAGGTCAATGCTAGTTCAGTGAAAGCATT ?
## Output fulfilled

## Input Check this sequence for PBM binding z-score at or above 2: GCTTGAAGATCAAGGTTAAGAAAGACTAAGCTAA
## Output not fulfilled

## Input Hi team, for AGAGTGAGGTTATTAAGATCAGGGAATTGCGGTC , is the recorded PBM binding z-score at or above 2?
## Output not fulfilled

## Input Hi team, for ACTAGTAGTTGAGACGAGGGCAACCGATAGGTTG , is the recorded PBM binding z-score at or above 2?
## Output not fulfilled

## Input Is PBM binding z-score at least 2? Consider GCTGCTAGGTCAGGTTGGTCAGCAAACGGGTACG
## Output not fulfilled

* * *

Test system: PPARg DBDmut:RXRa IVT, anti-PPARg (DBD mutation: PPARg1 K132A/R137A, NR concentration 270 nM, RXRa partner concentration 90 nM)
assay-protocol: PBM binding z-score (relative to random genomic background probes); higher = stronger binding; sequences stand for … in GC…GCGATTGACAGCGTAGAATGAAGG
experimental-endpoint: PBM binding z-score
Please respond with just the number, no unit label.

{"sequence-data": "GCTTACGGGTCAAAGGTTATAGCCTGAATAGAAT", "PBM binding z-score": 0.778}

## Input Can you look up the measured PBM binding z-score of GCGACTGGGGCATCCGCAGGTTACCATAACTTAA for me?
## Output -1.11

## Input Item under review: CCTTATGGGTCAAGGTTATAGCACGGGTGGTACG . Reported PBM binding z-score?
## Output 1.19

## Input Reported PBM binding z-score for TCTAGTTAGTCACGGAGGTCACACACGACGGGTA : what is it?
## Output 1.18

## Input Entry under review: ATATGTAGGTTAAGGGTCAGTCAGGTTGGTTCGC . Reported PBM binding z-score?
## Output 4.77

## Input Reported PBM binding z-score for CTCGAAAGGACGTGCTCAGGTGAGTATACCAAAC : what is it?
## Output -0.653

* * *

Tested on: RARa homodimer (NR concentration 270 nM)
assay-protocol: PBM binding z-score (relative to random genomic background probes); higher = stronger binding; sequences stand for … in GC…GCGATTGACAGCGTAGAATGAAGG
Note to self: values exactly at -0.4 are Condition met. So PBM binding z-score at or above -0.4 is Condition met, below is Condition not met.

{"sequence-data": "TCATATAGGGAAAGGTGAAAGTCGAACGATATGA", "class-assignment": "Condition met"}
{"sequence-data": "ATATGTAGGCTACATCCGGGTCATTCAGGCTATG", "class-assignment": "Condition met"}
{"sequence-data": "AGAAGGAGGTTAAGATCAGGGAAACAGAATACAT", "class-assignment": "Condition met"}
{"sequence-data": "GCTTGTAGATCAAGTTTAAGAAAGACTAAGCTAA", "class-assignment": "Condition not met"}

## Input # bool: PBM binding z-score of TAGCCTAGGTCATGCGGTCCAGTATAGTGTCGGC >= -0.4
## Output Condition not met

## Input Decide: PBM binding z-score of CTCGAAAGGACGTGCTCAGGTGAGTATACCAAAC >= -0.4?
## Output Condition met

* * *

System: VDR homodimer (NR concentration 270 nM)
assay-protocol: PBM binding z-score (relative to random genomic background probes); higher = stronger binding; sequences stand for … in GC…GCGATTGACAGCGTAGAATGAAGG
experimental-endpoint: PBM binding z-score

{"sequence-data": "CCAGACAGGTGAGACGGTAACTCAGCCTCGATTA", "result": 0.029}
{"sequence-data": "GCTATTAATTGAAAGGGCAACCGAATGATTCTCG", "result": 0.758}
{"sequence-data": "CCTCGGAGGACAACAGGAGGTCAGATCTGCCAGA", "result": 1.28}
{"sequence-data": "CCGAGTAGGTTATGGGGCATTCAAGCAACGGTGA", "result": 0.0962}
{"sequence-data": "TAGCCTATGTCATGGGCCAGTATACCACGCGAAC", "result": -0.627}
{"sequence-data": "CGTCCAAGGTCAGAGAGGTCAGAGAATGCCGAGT", "result": 5.54}
{"sequence-data": "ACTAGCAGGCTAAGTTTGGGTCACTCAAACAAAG", "result": -0.0144}
{"sequence-data": "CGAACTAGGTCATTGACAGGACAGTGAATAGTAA", "result": 0.793}
{"sequence-data": "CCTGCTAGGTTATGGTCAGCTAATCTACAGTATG", "result": -0.337}
{"sequence-data": "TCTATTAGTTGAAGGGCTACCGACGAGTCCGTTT", "result": 1.04}

## Input Look up PBM binding z-score: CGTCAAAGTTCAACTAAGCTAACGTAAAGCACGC
## Output 3.66

## Input Quick check: PBM binding z-score of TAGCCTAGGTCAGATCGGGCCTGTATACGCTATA ?
## Output -0.157

## Input What value of measured PBM binding z-score is listed for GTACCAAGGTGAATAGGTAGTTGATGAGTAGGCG ?
## Output 0.0253

* * *

System: PPARg homodimer (NR concentration 180 nM)
assay-protocol: PBM binding z-score (relative to random genomic background probes); higher = stronger binding; sequences stand for … in GC…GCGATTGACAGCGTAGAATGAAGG
experimental-endpoint: PBM binding z-score

Please review the entries below; each comes with its answer.
{"sequence-data": "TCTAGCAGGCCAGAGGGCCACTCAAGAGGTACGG", "experimental-endpoint": "PBM binding z-score", "result": -0.331}
{"sequence-data": "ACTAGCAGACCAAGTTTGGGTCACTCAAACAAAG", "experimental-endpoint": "PBM binding z-score", "result": -0.222}
{"sequence-data": "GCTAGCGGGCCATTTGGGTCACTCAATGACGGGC", "experimental-endpoint": "PBM binding z-score", "result": -0.0904}
{"sequence-data": "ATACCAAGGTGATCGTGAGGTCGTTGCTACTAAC", "experimental-endpoint": "PBM binding z-score", "result": 0.741}
{"sequence-data": "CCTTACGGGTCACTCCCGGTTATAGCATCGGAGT", "experimental-endpoint": "PBM binding z-score", "result": 2.11}

## Input Recorded PBM binding z-score for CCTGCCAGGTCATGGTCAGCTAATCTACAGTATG with PPARg homodimer (NR concentration 180 nM), please?
## Output 1.2
